Recorded pIC50, one value per entry.
- TGT: UniProt:P80457
- Sequence (P80457 whole entry): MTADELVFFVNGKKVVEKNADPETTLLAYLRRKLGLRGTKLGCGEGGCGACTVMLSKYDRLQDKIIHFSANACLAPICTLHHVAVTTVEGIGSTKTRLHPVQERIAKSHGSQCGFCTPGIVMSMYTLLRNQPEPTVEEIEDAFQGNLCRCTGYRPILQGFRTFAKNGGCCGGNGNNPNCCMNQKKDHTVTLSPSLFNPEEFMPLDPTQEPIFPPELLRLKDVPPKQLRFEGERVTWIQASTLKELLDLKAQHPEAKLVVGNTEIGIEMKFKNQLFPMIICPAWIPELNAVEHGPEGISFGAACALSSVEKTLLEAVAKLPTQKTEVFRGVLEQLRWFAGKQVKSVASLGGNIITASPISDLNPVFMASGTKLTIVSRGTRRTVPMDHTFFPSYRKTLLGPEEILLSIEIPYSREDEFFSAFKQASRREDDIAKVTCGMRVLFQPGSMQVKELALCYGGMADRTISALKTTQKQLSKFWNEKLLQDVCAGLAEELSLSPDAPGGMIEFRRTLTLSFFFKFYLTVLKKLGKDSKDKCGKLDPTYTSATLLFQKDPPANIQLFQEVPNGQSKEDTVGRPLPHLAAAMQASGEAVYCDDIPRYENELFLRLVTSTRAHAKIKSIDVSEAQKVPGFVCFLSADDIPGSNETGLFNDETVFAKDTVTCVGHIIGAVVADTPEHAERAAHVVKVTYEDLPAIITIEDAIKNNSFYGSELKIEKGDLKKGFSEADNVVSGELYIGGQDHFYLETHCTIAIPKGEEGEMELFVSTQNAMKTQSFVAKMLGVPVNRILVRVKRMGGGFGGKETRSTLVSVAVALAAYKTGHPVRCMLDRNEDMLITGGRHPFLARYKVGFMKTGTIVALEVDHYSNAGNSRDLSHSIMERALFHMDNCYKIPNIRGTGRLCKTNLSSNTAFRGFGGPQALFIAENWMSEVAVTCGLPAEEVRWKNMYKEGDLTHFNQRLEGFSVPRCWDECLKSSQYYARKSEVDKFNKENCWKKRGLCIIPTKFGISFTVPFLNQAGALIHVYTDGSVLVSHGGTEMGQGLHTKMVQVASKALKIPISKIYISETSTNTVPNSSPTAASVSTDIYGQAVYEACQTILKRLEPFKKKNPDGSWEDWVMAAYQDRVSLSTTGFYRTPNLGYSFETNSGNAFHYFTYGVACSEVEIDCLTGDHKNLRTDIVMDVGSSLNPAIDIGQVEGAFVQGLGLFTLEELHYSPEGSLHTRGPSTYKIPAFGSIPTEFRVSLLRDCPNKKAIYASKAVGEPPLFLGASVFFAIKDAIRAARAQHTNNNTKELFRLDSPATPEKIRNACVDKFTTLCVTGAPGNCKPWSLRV
# pIC50 = -log10(concentration in molar units)

[
  {
    "COMPOUND": "O=C(OCCc1ccc(O)c(O)c1)C1CCN(Cc2ccccc2)CC1 [HT1]",
    "pIC50": 3.34
  },
  {
    "COMPOUND": "COc1cc(CCOC(=O)C2CCN(Cc3ccccc3)CC2)ccc1OC(C)=O [HT3a]",
    "pIC50": 3.55
  },
  {
    "COMPOUND": "CC(=O)Oc1ccc(CCOC(=O)C2CCN(Cc3ccccc3)CC2)cc1 [HT4a]",
    "pIC50": 3.36
  }
]

Problem: // lookup pIC50 | system=UniProt:P80457 | key= COc1cc(CCOC(=O)C2CCN(Cc3ccccc3)CC2)ccc1O [HT3]
Solution: 3.44

Problem: // lookup pIC50 | system=UniProt:P80457 | key= O=C(OCCc1ccc(O)cc1)C1CCN(Cc2ccccc2)CC1 [HT4]
Solution: 3.22

Problem: // lookup pIC50 | system=UniProt:P80457 | key= O=C(OCCc1cc(O)c(O)cc1[N+](=O)[O-])C1CCN(Cc2ccccc2)CC1 [HT2]
Solution: 3.96
